Field: Kd. Provide a value for each of the binders that follow.
- test.target: T1, recombinant cyno BCMA, in house material (cyno, UniProt A0A2K5UD97 4-52)
- T1 construct: also called Cyno in house BCMA
- T1 sequence (A0A2K5UD97 entry or part of it): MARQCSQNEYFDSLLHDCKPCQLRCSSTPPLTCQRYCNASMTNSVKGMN
- protocol.notes: Biacore T100, antibody captured on Protein A, 37C
Report as a plain number; the unit nM is understood.

Return Kd (reported value) for this binder: CA8 humanised J8M0 (antibody, human IgG1, kappa, V domains shown, Humanised CA8, heavy chain J8 with light chain M0, human IgG1 kappa; also called CA8 J8M0) VH: QVQLVQSGAEVKKPGSSVKVSCKASGYTFTNYWMHWVRQAPGQGLEWMGATYRGHSDTYYNQKFKGRVTITADKSTSTAYMELSSLRSEDTAVYYCTRGAIYDGYDVLDNWGQGTLVTVSS VL: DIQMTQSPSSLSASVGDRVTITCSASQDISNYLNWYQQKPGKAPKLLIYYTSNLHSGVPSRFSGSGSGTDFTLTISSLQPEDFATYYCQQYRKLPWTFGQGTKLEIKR
1.08

Return Kd (reported value) for this binder: CA8 humanised J8M2 (antibody, human IgG1, kappa, V domains shown, Humanised CA8, heavy chain J8 with light chain M2, human IgG1 kappa; also called CA8 J8M2) VH: QVQLVQSGAEVKKPGSSVKVSCKASGYTFTNYWMHWVRQAPGQGLEWMGATYRGHSDTYYNQKFKGRVTITADKSTSTAYMELSSLRSEDTAVYYCTRGAIYDGYDVLDNWGQGTLVTVSS VL: DIQLTQSPSSLSASVGDRVTITCSASQDISNYLNWYQQKPGKAPELVIYYTSNLHSGVPSRFSGSGSGTDYTLTISSLQPEDFATYYCQQYRKLPWTFGQGTKLEIKR
1.32

Return Kd (reported value) for this binder: CA8 humanised J9M0 (antibody, human IgG1, kappa, V domains shown, Humanised CA8, heavy chain J9 with light chain M0, human IgG1 kappa; also called CA8 J9M0) VH: QVQLVQSGAEVKKPGSSVKVSCKGSGYTFTNYWMHWVRQAPGQGLEWIGATYRGHSDTYYNQKFKGRATLTADTSTSTAYMELSSLRSEDTAVYYCTRGAIYDGYDVLDNWGQGTLVTVSS VL: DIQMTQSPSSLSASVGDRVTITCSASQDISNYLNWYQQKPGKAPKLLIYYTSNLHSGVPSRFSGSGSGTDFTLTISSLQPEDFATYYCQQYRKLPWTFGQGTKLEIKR
0.46

Return Kd (reported value) for this binder: CA8 chimera antibody (human chimeric CA8) (antibody, V domains shown, also called Chimera CA8; CA8 chimeric antibody) VH: EVQLQQSGAVLARPGASVKMSCKGSGYTFTNYWMHWVKQRPGQGLEWIGATYRGHSDTYYNQKFKGKAKLTAVTSTSTAYMELSSLTNEDSAVYYCTRGAIYNGYDVLDNWGQGTLVTVSS VL: DIQLTQTTSSLSASLGDRVTISCSASQDISNYLNWYQQKPDGTVELVIYYTSNLHSGVPSRFSGSGSGTDYSLTIGYLEPEDVATYYCQQYRKLPWTFGGGSKLEIKR
0.305

Return Kd (reported value) for this binder: CA8 humanised J9M1 (antibody, human IgG1, kappa, V domains shown, Humanised CA8, heavy chain J9 with light chain M1, human IgG1 kappa; also called CA8 J9M1) VH: QVQLVQSGAEVKKPGSSVKVSCKGSGYTFTNYWMHWVRQAPGQGLEWIGATYRGHSDTYYNQKFKGRATLTADTSTSTAYMELSSLRSEDTAVYYCTRGAIYDGYDVLDNWGQGTLVTVSS VL: DIQMTQSPSSLSASVGDRVTITCSASQDISNYLNWYQQKPGKAPKLLIYYTSNLHSGVPSRFSGSGSGTDYTLTISSLQPEDFATYYCQQYRKLPWTFGQGTKLEIKR
0.442

Numbers sourced from patent US20230137032A1.
